Assay: Highest frequency of moderate liver toxicity observed during clinical trials, expressed as a percentage. [column '% BIOL' in source]
Settings: human
Recorded Hepatotoxicity (moderate) for the following compounds

{"columns": ["Compound", "Unit Abbrev", "Hepatotoxicity (moderate)"],
 "data": [
  ["NC1=NC(=O)C(c2ccccc2)O1 (configuration not stated)", "%", 2],
  ["Nc1nc2[nH]cc(CCc3ccc(C(=O)N[C@@H](CCC(=O)O)C(=O)O)cc3)c2c(=O)[nH]1", "%", 100],
  ["CN(C)C/C=C(/c1ccc(Br)cc1)c1cccnc1", "%", 20.5],
  ["CCC/C=C/C=C/C(=O)O[C@H]1/C(=C/C(=O)OC)C[C@H]2C[C@H]([C@@H](C)O)OC(=O)C[C@H](O)C[C@@H]3C[C@H](OC(C)=O)C(C)(C)[C@](O)(C[C@@H]4C/C(=C/C(=O)OC)C[C@H](/C=C/C(C)(C)[C@]1(O)O2)O4)O3", "%", 16.7],
  ["Nc1nc(=O)[nH]cc1F", "%", 55],
  ["CCNC(=O)[C@@H]1CCCN1C(=O)[C@H](CCCNC(=N)N)NC(=O)[C@H](CC(C)C)NC(=O)[C@@H](CC(C)C)NC(=O)[C@H](Cc1ccc(O)cc1)NC(=O)[C@H](CO)NC(=O)[C@H](Cc1c[nH]c2ccccc12)NC(=O)[C@H](Cc1c[nH]cn1)NC(=O)[C@@H]1CCC(=O)N1 [LEUPROLIDE]", "%", 2.4],
  ["NCC(CC(=O)O)c1ccc(Cl)cc1 (configuration not stated)", "%", 0]
]}

====

Details: human
Where a SMILES comes first, the peptide text is derived from it. Bridges are numbered along the chain shown (N, C = ends). [ ]: non-standard residue; d: D form. The star is where a group is joined. NMePhe(4-NMe2) = CN[C@@H](Cc1ccc(N(C)C)cc1)C(=O)O; Pip(4-oxo) = O=C1CCN[C@H](C(=O)O)C1; Picolinoyl(3-OH) = O=C(c1ncccc1O)*; Phg = N[C@H](C(=O)O)c1ccccc1; dAbu = CC[C@@H](N)C(=O)O
Recorded Hepatotoxicity (cytolytic) for the following molecules

{"columns": ["Molecule", "Hepatotoxicity (cytolytic)"],
 "data": [
  ["Nc1ccc(S(=O)(=O)Nc2ccccn2)cc1 [SULFAPYRIDINE]", 0],
  ["CCCCC(=O)N(Cc1ccc(-c2ccccc2-c2nnn[nH]2)cc1)[C@H](C(=O)O)C(C)C", 1],
  ["CO/N=C(\\C(=O)N[C@@H]1C(=O)N2C(C(=O)OC(C)OC(C)=O)=C(COC(N)=O)CS[C@H]12)c1ccco1 (stereo partly specified) [CEFUROXIME AXETIL]", 0],
  ["CC1=C(/C=C/C(C)=C/C=C/C(C)=C\\C(=O)O)C(C)(C)CCC1 [ISOTRETINOIN]", 1],
  ["Cc1c(-c2ccccc2)oc2c(C(=O)OCCN3CCCCC3)cccc2c1=O [FLAVOXATE]", 1],
  ["C(=C\\c1ccccc1)/CN1CCN(C(c2ccccc2)c2ccccc2)CC1 [CINNARIZINE]", 0],
  ["Nc1nc(N)c2nc(-c3ccccc3)c(N)nc2n1", 1],
  ["CNc1nc(N(C)C)nc(N(C)C)n1 [PENTAMETHYL MELAMINE]", 0],
  ["CC(=O)CC(c1ccc([N+](=O)[O-])cc1)c1c(O)c2ccccc2oc1=O (stereo unspecified) [ACENOCOUMAROL]", 3],
  ["O=C(O)c1cc(/N=N/c2ccc(S(=O)(=O)Nc3ccccn3)cc2)ccc1O [SULFASALAZINE]", 31],
  ["CO[C@@]1(NC(=O)CSCC#N)C(=O)N2C(C(=O)O)=C(CSc3nnnn3C)CS[C@@H]21 [CEFMETAZOLE]", 0],
  ["CC[C@H]1NC(=O)[C@@H](NC(=O)c2ncccc2O)[C@@H](C)OC(=O)[C@H](c2ccccc2)NC(=O)[C@@H]2CC(=O)CCN2C(=O)[C@H](Cc2ccc(N(C)C)cc2)N(C)C(=O)[C@@H]2CCCN2C1=O [PRISTINAMYCIN 1A] ({Picolinoyl(3-OH)}-T[dAbu]P[NMePhe(4-NMe2)][Pip(4-oxo)][Phg]; ester 1-C)", 1],
  ["CCOC(=O)C1=C(C)NC(C)=C(C(=O)OC)C1c1cccc([N+](=O)[O-])c1 (stereo unspecified) [NITRENDIPINE]", 0],
  ["Cc1c(OCC(F)(F)F)ccnc1C[S+]([O-])c1nc2ccccc2[nH]1 (stereo unspecified) [LANSOPRAZOLE]", 3],
  ["CCN(CC)CCCC(C)Nc1c2ccc(Cl)cc2nc2ccc(OC)cc12 (stereo unspecified) [QUINACRINE]", 2],
  ["CN(C)CC/C=C1/c2ccccc2Sc2ccc(Cl)cc21 [CHLORPROTHIXENE]", 0]
]}

====

Recorded Hepatotoxicity (severe hepatitis) for the following molecules
Details: human

{"columns": ["Molecule", "Hepatotoxicity (severe hepatitis)"],
 "data": [
  ["CC[C@H]1OC(=O)[C@H](C)[C@@H](O[C@H]2C[C@@](C)(OC)[C@@H](O)[C@H](C)O2)[C@H](C)[C@@H](O[C@@H]2O[C@H](C)C[C@H](N(C)C)[C@H]2O)[C@](C)(O)C[C@](C)(F)C(=O)[C@H](C)[C@@H](O)[C@]1(C)O", 0],
  ["O=C(O)CCC(=O)c1ccc(-c2ccccc2)cc1", 0],
  ["CN1CC[C@@H]2Nc3ccccc3[C@@H]2C1.Cl.Cl", 0],
  ["NN [HYDRAZINE]", 1],
  ["CCC(C)n1ncn(-c2ccc(N3CCN(c4ccc(OCC5COC(Cn6cncn6)(c6ccc(Cl)cc6Cl)O5)cc4)CC3)cc2)c1=O (stereo not given)", 1],
  ["CNC(=C[N+](=O)[O-])NCCSCc1ccc(CN(C)C)o1", 2],
  ["O=P1(NCCCl)OCCCN1CCCl (stereo not given) [IFOSFAMIDE]", 1],
  ["CCOC(=O)OC(C)OC(=O)[C@@H]1N2C(=O)[C@@H](/N=C/N3CCCCCC3)[C@H]2SC1(C)C (stereo not given in full)", 0],
  ["O=C1CC2(CCCC2)CC(=O)N1CCCCN1CCN(c2nsc3ccccc23)CC1", 0],
  ["Nc1nc(N)c2nc(-c3ccccc3)c(N)nc2n1", 1]
]}

====

Recorded Hepatotoxicity (moderate) for the following compounds
Assay: Highest frequency of moderate liver toxicity observed during clinical trials, expressed as a percentage. [column '% BIOL' in source]
Conditions: human

{"columns": ["Compound", "Unit Abbrev", "Hepatotoxicity (moderate)"],
 "data": [
  ["C[C@H](O)C(=O)Nc1c(I)c(C(=O)NC(CO)CO)c(I)c(C(=O)NC(CO)CO)c1I", "%", 0],
  ["COc1ccc(CCN(C)CCCC2(c3ccc(OC)c(OC)c3)S(=O)(=O)CCCS2(=O)=O)cc1OC", "%", 6.7],
  ["Oc1ccc(Cl)cc1Cc1cc(Cl)ccc1O", "%", 0],
  ["NCC[C@H](O)C(=O)N[C@@H]1C[C@H](N)[C@@H](O[C@H]2O[C@H](CN)[C@@H](O)[C@H](O)[C@H]2O)[C@H](O)[C@H]1O[C@H]1O[C@H](CO)[C@@H](O)[C@H](N)[C@H]1O", "%", 15.3],
  ["CO/N=C(\\C(=O)N[C@@H]1C(=O)N2C(C(=O)[O-])=C(C[n+]3ccc(N)n3CCO)CS[C@H]12)c1csc(N)n1", "%", 25],
  ["O=CN(O)CCCP(=O)(O)O", "%", 7.7],
  ["CCc1nc(N)nc(N)c1-c1ccc(Cl)cc1", "%", 28.6],
  ["CCC(C)C(C)(COC(N)=O)COC(N)=O (centres undefined) [MEBUTAMATE]", "%", 0],
  ["Cc1cc(Br)c(O)c2ncccc12", "%", 0]
]}

====

Test: Highest frequency of moderate liver toxicity observed during clinical trials, expressed as a percentage. [column '% BIOL' in source]
Conditions: human
hey, just use true (1) if measured Hepatotoxicity (moderate) is less than 6%, otherwise false (0)

{"columns": ["Molecule", "Classification"],
 "data": [
  ["CN1CCOC(c2ccccc2)c2ccccc2C1 (stereo not drawn) [NEFOPAM]", "false (0)"],
  ["O=C(O)C1=C(CSc2nnnn2CS(=O)(=O)O)CS[C@@H]2[C@H](NC(=O)[C@H](O)c3ccccc3)C(=O)N12 [CEFONICID]", "false (0)"],
  ["CCN(CC)CC[n+]1ccc2c(C)c3[nH]c4ccc(O)cc4c3c(C)c2c1.[Cl-] [DATELLIPTIUM CHLORIDE]", "false (0)"],
  ["CCOC(=O)[C@H](CCc1ccccc1)N[C@@H](C)C(=O)N1[C@H](C(=O)O)C[C@H]2CCCC[C@@H]21 [TRANDOLAPRIL]", "true (1)"],
  ["CN(C)CCc1c[nH]c2ccc(C[C@H]3COC(=O)N3)cc12 [ZOLMITRIPTAN]", "true (1)"],
  ["OC(c1cc(C(F)(F)F)nc2c(C(F)(F)F)cccc12)C1CCCCN1 (stereo not drawn) [MEFLOQUINE]", "false (0)"],
  ["Nc1cc(N2CCCCC2)nc(N)[n+]1[O-] [MINOXIDIL]", "true (1)"],
  ["CCOC(=O)NNc1nncc2ccccc12 [TODRALAZINE]", "true (1)"],
  ["CN(Cc1cc(Br)cc(Br)c1N)C1CCCCC1 [BROMHEXINE]", "true (1)"],
  ["Cc1onc(-c2c(F)cccc2Cl)c1C(=O)N[C@@H]1C(=O)N2[C@@H]1SC(C)(C)[C@@H]2C(=O)O [FLOXACILLIN]", "true (1)"],
  ["CC1(C)S[C@@H]2[C@H](NC(=O)[C@H](C(=O)O)c3ccsc3)C(=O)N2[C@H]1C(=O)O.O=C(O)[C@H]1/C(=C/CO)O[C@@H]2CC(=O)N21", "false (0)"],
  ["C=CCNc1nc(NCC=C)nc(N2CCN(C(c3ccc(F)cc3)c3ccc(F)cc3)CC2)n1 [ALMITRINE]", "true (1)"],
  ["COc1cc([C@@H]2c3cc4c(cc3[C@@H](O[C@@H]3O[C@@H]5CO[C@@H](c6cccs6)O[C@H]5[C@H](O)[C@H]3O)[C@H]3COC(=O)[C@H]23)OCO4)cc(OC)c1O [TENIPOSIDE]", "false (0)"],
  ["CN(C)[C@@H]1C(O)=C(C(N)=O)C(=O)[C@@]2(O)C(O)=C3C(=O)c4c(O)cccc4[C@@](C)(O)[C@H]3C[C@@H]12 [TETRACYCLINE]", "false (0)"],
  ["Cc1ccnc2c1NC(=O)c1cccnc1N2C1CC1 [NEVIRAPINE]", "false (0)"],
  ["CN(C)[C@@H]1C(O)=C(C(=O)NCN2CCCC2)C(=O)[C@@]2(O)C(O)=C3C(=O)c4c(O)cccc4[C@@](C)(O)[C@H]3C[C@@H]12 [ROLITETRACYCLINE]", "true (1)"],
  ["CN(C)CCn1nnnc1SCC1=C(C(=O)O)N2C(=O)[C@@H](NC(=O)Cc3csc(N)n3)[C@H]2SC1 [CEFOTIAM]", "false (0)"],
  ["CC1(C)S[C@@H]2[C@H](NC(=O)[C@H](N)c3ccc(O)cc3)C(=O)N2[C@H]1C(=O)O.O=C(O)[C@H]1/C(=C/CO)O[C@@H]2CC(=O)N21", "false (0)"],
  ["Cc1ccc2c(-c3ccccc3)nc(=O)n(C(C)C)c2c1 [PROQUAZONE]", "true (1)"],
  ["N=C(N)c1ccc(/C=C/c2ccc(C(=N)N)cc2)cc1 [STILBAMIDINE]", "true (1)"],
  ["CCCC1O[C@@H]2C[C@H]3[C@@H]4CCC5=CC(=O)C=C[C@]5(C)[C@H]4[C@@H](O)C[C@]3(C)[C@]2(C(=O)CO)O1 (stereo partly drawn) [BUDESONIDE]", "true (1)"],
  ["C[C@@H](O)[C@H]1C(=O)N2C(C(=O)O)=C(S[C@@H]3CN[C@H](C(=O)Nc4cccc(C(=O)O)c4)C3)[C@H](C)[C@H]12", "true (1)"],
  ["NC(=O)c1cccnc1 [NIACINAMIDE]", "false (0)"],
  ["CC(=O)CC(c1ccc([N+](=O)[O-])cc1)c1c(O)c2ccccc2oc1=O (stereo not drawn) [ACENOCOUMAROL]", "true (1)"],
  ["Cc1oc(=O)oc1COC(=O)[C@@H]1N2C(=O)[C@@H](NC(=O)[C@H](N)c3ccccc3)[C@H]2SC1(C)C [LENAMPICILLIN]", "false (0)"],
  ["C[C@@](O)(/C=C/[C@H]1CC=CC(=O)O1)[C@@H](C[C@@H](O)\\C=C/C=C\\C=C\\CO)OP(=O)(O)O [FOSTRIECIN]", "true (1)"],
  ["N=C(N)NCC1COc2ccccc2O1 (stereo not drawn) [GUANOXAN]", "false (0)"],
  ["O=P1(NCCCl)OCCCN1CCCl (stereo not drawn) [IFOSFAMIDE]", "true (1)"],
  ["N[C@@H]1CON=C1O [CYCLOSERINE]", "false (0)"],
  ["NC(N)=Nc1nc(CSCCN/C=N/S(=O)(=O)c2ccc(Br)cc2)cs1 [EBROTIDINE]", "true (1)"],
  ["NC(=O)NO [HYDROXYUREA]", "false (0)"],
  ["Nc1c2c(nc3ccccc13)CCCC2O (stereo not drawn) [VELNACRINE]", "false (0)"]
]}
